molecular target: Beta-lactamase OXA-48 (Klebsiella pneumoniae, UniProt Q6XEC0); experiment: Inhibition of native signal containing Klebsiella pneumoniae OXA-48 using nitrocefin substrate pre-incubated for 5 mins before substrate addition
Sequence (Q6XEC0 whole entry): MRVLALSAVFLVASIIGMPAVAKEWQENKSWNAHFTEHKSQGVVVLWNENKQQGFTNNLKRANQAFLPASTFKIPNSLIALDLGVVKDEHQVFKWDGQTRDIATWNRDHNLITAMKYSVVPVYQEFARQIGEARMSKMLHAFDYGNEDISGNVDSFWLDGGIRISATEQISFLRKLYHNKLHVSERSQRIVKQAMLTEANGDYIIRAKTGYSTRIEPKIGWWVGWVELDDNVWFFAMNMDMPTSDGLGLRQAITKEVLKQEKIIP
Entries annotated with measured pIC50
Give only the number. pIC50 is defined as minus log10 of concentration in molar units.

Cc1cc2ccc(C(=O)O)cc2cn1 ... 2.99

The value of pIC50 measured for the molecule "O=C(O)c1ccc2ccncc2c1" turned out to be 2.66

The reported value for "O=C(O)c1cccc(-c2cccnc2)c1" in terms of pIC50 is 3.62

"O=C(O)CCCc1c[nH]c2ccccc12" has a reported pIC50 of 3.32

====

Entries annotated with measured pKd
target: Beta-lactamase OXA-48 (Klebsiella pneumoniae, UniProt Q6XEC0); experiment: Binding affinity to native signal deficient and TEV cleavage site containing His-tagged Klebsiella pneumoniae OXA-48 expressed in Escherichia coli assessed as dissociation constant by SPR assay
Note on pKd: it is the negative log10 of concentration, concentration in mol/L.

O=C(O)c1cccc(-c2ccccc2)c1 ... 3.43
O=C(O)c1ccc2ccncc2c1 ... 2.93
Cc1cc2ccc(C(=O)O)cc2cn1 ... 3.15

"Nc1cccnc1-c1cccc(C(=O)O)c1" has a reported pKd of 3.48

Data point: "O=C(O)c1cccc(-c2nccs2)c1" ; pKd = 3.51

Value of pKd reported for the compound "O=C(O)c1cccc(-c2cccnc2)c1" is 3.55

Memo: "O=C(O)c1cccc(-c2ccncc2)c1" , reported pKd: 3.55

====

target: Beta-lactamase OXA-48 (Klebsiella pneumoniae, UniProt Q6XEC0); experiment: Inhibition of native signal containing Klebsiella pneumoniae OXA-48 using nitrocefin substrate pre-incubated for 5 mins before substrate addition
quantityKind: pIC50
When answering, recall that pIC50 equals minus log10 of the concentration in mol/L, and write that number alone.

// known answers, use as guide
Nc1cccnc1-c1cccc(C(=O)O)c1 ... 3.74
O=C(O)c1ccc(Oc2ccccc2)cc1 ... 3.06
O=C(O)c1cccc(-c2ccncc2)c1 ... 3.60
O=C(O)CSc1ccnc2cc(Cl)ccc12 ... 3.66

Recorded pIC50 (molecule "O=C(O)c1cccc(-c2ccccc2)c1" ): 3.59

The recorded pIC50 for entry "O=C(O)c1cccc(C#Cc2ccccc2)c1" equals 3.32

Entry under test: "O=C(O)c1cc(-c2ccncc2)cc(-c2ccncc2)c1" . Its pIC50 was 4.74

Looking up "O=C(O)c1cccc(-c2nccs2)c1" , I see its pIC50 listed as 3.60

"O=C(O)c1ccc2[nH]ccc2c1" yielded pIC50 of 2.86

====

biological target: Beta-lactamase OXA-48 (Klebsiella pneumoniae); test: Binding affinity to native signal deficient and TEV cleavage site containing His-tagged Klebsiella pneumoniae OXA-48 expressed in Escherichia coli assessed as dissociation constant by SPR assay
pKd: −log10 of the molar value.
Rule: pKd under 4 gives no, otherwise yes.

CC(=O)c1cccc(-c2ccncc2)c1 ... no

Determine whether measured pKd meets or exceeds 4 for "O=C(O)c1cc(-c2ccncc2)cc(-c2ccncc2)c1"
yes

Is reported pKd greater than or equal to 4 here: "O=C(O)CCCc1c[nH]c2ccccc12"
no

Dear colleague, could you confirm whether "C[C@@H](O)[C@H]1C(=O)N2C(C(=O)O)=C(S[C@@H]3CN[C@H](C(=O)N(C)C)C3)[C@H](C)[C@H]12" has pKd at or above 4?
yes

Threshold query (pKd >= 4) on "O=C(O)c1ccc2[nH]ccc2c1"
no

Say whether "O=C(O)c1ccc(Oc2ccccc2)cc1" shows pKd of 4 or more.
no

Kindly determine if pKd recorded for "O=C(O)c1ccccn1" is above or exactly 4.
no

Check the entry "c1ccc(-c2ccncc2)cc1" : does pKd equal or exceed 4?
no
